target: HsIMPDH2 (Homo sapiens, UniProt P12268)
# Ki per entry
Please respond with the number in nM and leave the unit unwritten.

Here is how some molecules turned out for Ki.
COc1c(C)c2c(c(O)c1CCOCC(=O)Nc1ccc(Cl)cc1)C(=O)OC2 [Compound 38]	870
COc1c(C)c2c(c(O)c1CCCC(=O)Nc1ccc(Cl)cc1)C(=O)OC2 [Compound 42b]	290
COc1c(C)c2c(c(O)c1CC(=O)Nc1ccc(Cl)cc1)C(=O)OC2 [Compound 44]	800
COc1c(C)c2c(c(O)c1C/C=C/C(=O)Nc1ccc(Cl)cc1)C(=O)OC2 [Compound 42a]	550

Prompt: Please report the recorded Ki for COc1c(C)c2c(c(O)c1C[C@H]1C[C@]1(C)CCC(=O)Nc1ccc(Cl)c(C(F)(F)F)c1)C(=O)OC2 [Compound 31a] .
Response: 1400

Prompt: Proceed to COc1c(C)c2c(c(O)c1C[C@@H]1C[C@@]1(C)CCC(=O)Nc1ccc(Cl)c(C(F)(F)F)c1)C(=O)OC2 [Compound 31b]
Response: 460

---

molecular target: CpIMPDH (Cryptosporidium parvum, UniProt Q8T6T2); assay: biochemical; assay type: biochemical
Sequence (Q8T6T2 whole entry): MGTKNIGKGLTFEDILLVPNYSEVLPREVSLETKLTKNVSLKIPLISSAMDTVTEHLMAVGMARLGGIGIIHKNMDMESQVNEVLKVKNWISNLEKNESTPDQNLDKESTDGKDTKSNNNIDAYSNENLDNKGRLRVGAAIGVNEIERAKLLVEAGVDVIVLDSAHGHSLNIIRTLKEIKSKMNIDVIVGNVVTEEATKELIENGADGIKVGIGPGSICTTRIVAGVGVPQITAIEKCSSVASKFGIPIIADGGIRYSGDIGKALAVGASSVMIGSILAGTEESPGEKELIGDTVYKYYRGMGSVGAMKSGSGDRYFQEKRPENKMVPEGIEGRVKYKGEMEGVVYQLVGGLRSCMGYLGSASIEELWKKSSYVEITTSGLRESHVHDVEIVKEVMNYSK
PARAMETER MEASURED: pKi
Convention used: pKi is expressed as -log10 of the molar concentration.

Here is how some molecules turned out for pKi.
COc1c(C)c2c(c(O)c1CC(=O)Nc1ccc(Cl)cc1)C(=O)OC2	5.55
COc1c(C)c2c(c(O)c1C[C@H]1C[C@]1(C)CCC(=O)Nc1ccc(Cl)c(C(F)(F)F)c1)C(=O)OC2 [Compound 31a]	6.24
COc1c(C)c2c(c(O)c1C[C@@H]1C[C@@]1(C)CCC(=O)Nc1ccc(Cl)c(C(F)(F)F)c1)C(=O)OC2 [Compound 31b]	7.18
COc1c(C)c2c(c(O)c1CCCC(=O)Nc1ccc(Cl)cc1)C(=O)OC2 [Compound 42b]	6.35
COc1c(C)c2c(c(O)c1CCOCC(=O)Nc1ccc(Cl)cc1)C(=O)OC2	6.39
COc1c(C)c2c(c(O)c1C/C=C/C(=O)Nc1ccc(Cl)cc1)C(=O)OC2 [Compound 42a]	6.32
COc1c(C)c2c(c(O)c1C/C=C(\C)CCC(=O)Nc1ccc(F)cc1)C(=O)OC2	6.74

Attention now shifts to the item below.
Prompt: Report pKi for `COc1c(C)c2c(c(O)c1C/C=C(\C)CCC(=O)Nc1ccc(C(F)(F)F)cc1)C(=O)OC2` tested on CpIMPDH (Cryptosporidium parvum, UniProt Q8T6T2).
Response: 6.82
